List of MIC Streptococcus pyogenes (GC 4563) values.
test system: Streptococcus sp.; assay: In vitro antibacterial evaluation: minimum inhibitory concentration (MIC), broth dilution method; assay type: cell-based; details: Streptococcus pyogenes (GC 4563); broth dilution, 18 hours at 35° C.

compound | test-system | MIC Streptococcus pyogenes (GC 4563) / mg/L
CC(=O)Nc1cc(CC2NC(=O)C(C(C)c3ccccc3)NC(=O)CNC(=O)C(CO)NC(=O)C(C(O)C3CNC(=N)N3C3OC(CO)C(O)C(O)C3O)NC(=O)C(C(O)C3CNC(=N)N3)NC2=O)ccc1O (stereo not shown) | Streptococcus sp. | 8
CC(c1ccccc1)C1NC(=O)CNC(=O)C(CO)NC(=O)C(C(O)C2CNC(=N)N2C2OC(CO)C(O)C(O)C2O)NC(=O)C(C(O)C2CNC(=N)N2)NC(=O)C(Cc2ccc3oc(-c4ccoc4)nc3c2)NC1=O (stereo not shown) | Streptococcus sp. | 32
CC(c1ccccc1)C1NC(=O)CNC(=O)C(CO)NC(=O)C(C(O)C2CN(CCCCCCCCCCC(=O)O)C(=N)N2C2OC(CO)C(O)C(O)C2O)NC(=O)C(C(O)C2CNC(=N)N2)NC(=O)C(Cc2ccc(OC3OC(CO)C(OC4OC(CO)C(O)C(O)C4O)C(O)C3O)cc2)NC1=O (stereo not shown) | Streptococcus sp. | 64
CC(C)=CCCC(C)=CCN=C1NCC(C(O)C2NC(=O)C(C(O)C3CNC(=N)N3)NC(=O)C(Cc3ccc(OC4OC(CO)C(OC5OC6COC7(OC6C(O)C5O)C5CC6CC(C5)CC7C6)C(O)C4O)cc3)NC(=O)C(C(C)c3ccccc3)NC(=O)CNC(=O)C(CO)NC2=O)N1C1OC(CO)C(O)C(O)C1O (stereo not shown) | Streptococcus sp. | 1

###

system: Staphylococcus aureus-SMITH (GC 4543); experiment: Acute lethal infection in mice (ED50); assay type: in vivo; conditions: female CD-1 mice, intraperitoneal challenge, intravenous dose 30 min. after infection, 7 day survival ratios
Numbered stars: 1 amine (or outer) side, 2 acyl side, 3 side chain; on linkers, the order of the positions; unused ones are H or OH. Square brackets hold non-standard residues; d marks the D form. Peptide text beside a SMILES is read from it. * marks the point of attachment. ξ: configuration not given here. X1 = N=C1NCC(C(O)C(N[*:1])C(=O)[*:2])N1C1OC(CO)C(O)C(O)C1O; ξEnduracididine(βξ-OH,4'ξ) = N=C1NCC(C(O)C(N)C(=O)O)N1; X2 = OCC1OC(OC2C(CO)OC(*)C(O)C2O)C(O)C(O)C1O; Cha = N[CH](CC1CCCCC1)C(=O)O
measured-property: median effective dose (ED50), Staphylococcus aureus-SMITH (GC 4543)

molecule | reported-value
Cc1ccc(Oc2ccc(C3OCC4OC(OC5C(CO)OC(Oc6ccc(CC7NC(=O)C(C(C)c8ccccc8)NC(=O)CNC(=O)C(CO)NC(=O)C(C(O)C8CNC(=N)N8C8OC(CO)C(O)C(O)C8O)NC(=O)C(C(O)C8CNC(=N)N8)NC7=O)cc6)C(O)C5O)C(O)C(O)C4O3)cc2)cc1 (stereo not drawn) | 0.08 mg/kg
CC(c1ccccc1)C1NC(=O)CNC(=O)C(CO)NC(=O)C(CC2CN(Cc3ccccc3)C(=N)N2C2OC(CO)C(O)C(O)C2O)NC(=O)C(CC2CNC(=N)N2)NC(=O)C(Cc2ccc(OC3OC(CO)C(OC4OC5COC6(OC5C(O)C4O)C4CC5CC(C4)CC6C5)C(O)C3O)cc2)NC1=O (stereo not drawn) | >8
N=C1NCC(C(O)C2NC(=O)C(Cc3ccc(OC4OC(CO)C(OC5OC(CO)C(O)C(O)C5O)C(O)C4O)cc3)NC(=O)C(CC3CCCCC3)NC(=O)CNC(=O)C(CO)NC(=O)C(C(O)C3CNC(=N)N3C3OC(CO)C(O)C(O)C3O)NC2=O)N1 (stereo not drawn) [Example 263] (cyclo(G[Cha]Y(X2)[ξEnduracididine(βξ-OH,4'ξ)][X1]S); configuration not given here) | >8
